// reported MIC for each item listed
- Test system: Mycobacterium kansasii
- assay.method.text: Antimycobacterial activity against Mycobacterium kansasii 235/80 after 7 days
- Type: functional
- reported.conditions: 235/80, 168 h
outcome.measure: MIC (µM)

# sample.smiles, outcome.measure, unit.label, reading
records = [
    ("O=C(NCc1ccccc1)Oc1ccc(Cl)cc1C(=O)Nc1ccc(C(F)(F)F)cc1", "MIC", "µM", 8),
    ("O=C(Nc1ccccc1)Oc1ccccc1C(=O)Nc1ccccc1", "MIC", "µM", 125),
    ("O=C(NCCc1ccccc1)Oc1ccc(Cl)cc1C(=O)Nc1ccc(F)cc1", "MIC", "µM", 8),
    ("O=C(NCc1ccccc1)Oc1ccccc1C(=O)Nc1ccccc1", "MIC", "µM", 125),
    ("O=C(NC12CC3CC(CC(C3)C1)C2)Oc1ccc(Cl)cc1C(=O)Nc1ccc(F)cc1", "MIC", "µM", 8),
    ("O=C(NCCc1ccccc1)Oc1ccc(Cl)cc1C(=O)Nc1ccc(Cl)cc1", "MIC", "µM", 8),
    ("O=C(NCc1ccccc1)Oc1ccc(Cl)cc1C(=O)Nc1ccc(F)cc1", "MIC", "µM", 16),
    ("O=C(NCc1ccccc1)Oc1ccc(Cl)cc1C(=O)Nc1ccc(Br)cc1", "MIC", "µM", 4),
    ("O=C(NC1CCCCC1)Oc1ccc(Cl)cc1C(=O)Nc1ccc(Cl)cc1", "MIC", "µM", 16),
    ("O=C(NC12CC3CC(CC(C3)C1)C2)Oc1ccc(Cl)cc1C(=O)Nc1ccc(Br)cc1", "MIC", "µM", 4),
]

###

- System: Mycobacterium tuberculosis
- assay.method.text: Antimycobacterial activity against Mycobacterium tuberculosis H37Ra ITM-M006710 after 48 hr by resazurin dye based microdilution method
- Format: functional
- reported.conditions: H37Ra ITM-M006710, 48 h
// reported log10 MIC for each item listed
outcome.measure: log10 MIC (log10 of the value in µg/mL)

# sample.smiles, log10 MIC
records = [
    ("O=C(NCCc1ccccc1)Oc1ccccc1C(=O)Nc1ccccc1", 1.19),
    ("O=C(Nc1ccccc1)Oc1ccc(Cl)cc1C(=O)Nc1ccc(F)cc1", 0.49),
    ("O=C(NC1CCCCC1)Oc1ccc(Cl)cc1C(=O)Nc1ccc(Cl)cc1", 0.49),
    ("O=C(NCc1ccccc1)Oc1ccccc1C(=O)Nc1ccccc1", 1.19),
    ("O=C(NC1CCCCC1)Oc1ccc(Cl)cc1C(=O)Nc1ccc(Br)cc1", 0.19),
    ("O=C(Nc1ccccc1)Oc1ccccc1C(=O)Nc1ccccc1", 1.49),
    ("O=C(NC12CC3CC(CC(C3)C1)C2)Oc1ccc(Cl)cc1C(=O)Nc1ccc(Cl)cc1", 0.49),
    ("O=C(NC1CCCCC1)Oc1ccc(Cl)cc1C(=O)Nc1ccc(F)cc1", 0.49),
    ("O=C(NCc1ccccc1)Oc1ccc(Cl)cc1C(=O)Nc1ccc(Cl)cc1", 0.19),
    ("O=C(Nc1ccccc1)Oc1ccc(Cl)cc1C(=O)Nc1ccc(Br)cc1", 0.19),
    ("O=C(NCCc1ccccc1)Oc1ccc(Cl)cc1", 1.49),
    ("O=C(Nc1ccccc1)Oc1ccc(Cl)cc1C(=O)Nc1ccc(Cl)cc1", 0.19),
    ("O=C(NCc1ccccc1)Oc1ccc(Cl)cc1C(=O)Nc1ccc(Br)cc1", 0.59),
    ("O=C(NC1CCCCC1)Oc1ccc(Cl)cc1", 2.70),
    ("O=C(Nc1ccccc1)Oc1ccc(Cl)cc1", 0.89),
    ("O=C(NCc1ccccc1)Oc1ccc(Cl)cc1", 1.49),
    ("O=C(NC12CC3CC(CC(C3)C1)C2)Oc1ccc(Cl)cc1C(=O)Nc1ccc(Br)cc1", 0.19),
    ("O=C(NC1CCCCC1)Oc1ccccc1C(=O)Nc1ccccc1", 1.19),
    ("O=C(NCCc1ccccc1)Oc1ccc(Cl)cc1C(=O)Nc1ccc(Cl)cc1", 0.19),
    ("O=C(NC12CC3CC(CC(C3)C1)C2)Oc1ccccc1C(=O)Nc1ccccc1", 2.40),
    ("O=C(NCCc1ccccc1)Oc1ccc(Cl)cc1C(=O)Nc1ccc(F)cc1", 0.49),
    ("O=C(NC12CC3CC(CC(C3)C1)C2)Oc1ccc(Cl)cc1", 1.80),
    ("O=C(NCc1ccccc1)Oc1ccc(Cl)cc1C(=O)Nc1ccc(F)cc1", 0.49),
]
